Let's look at some pIC50 data for Telomerase reverse transcriptase (Homo sapiens, UniProt O14746) that I collected from the literature.
pIC50: −log10 of the molar value.
reported property: pIC50

{"columns": ["sample smiles", "reported property", "op", "reported measurement"],
 "data": [
  ["O=C(CCN1CCCC1)Nc1ccc(Nc2c3ccc(NC(=O)CCN4CCCC4)cc3nc3cc(NC(=O)CCN4CCCC4)ccc23)cc1", "pIC50", "=", 7.92],
  ["COC(=O)c1ccc(Nc2nc(C)c3ccc(=O)n(-c4ccc(C(=O)OC)cc4)c3n2)cc1", "pIC50", "=", 5.51],
  ["COc1ccc2c(=O)cc(-c3ccc(NC(C)=O)c(NC(C)=O)c3)oc2c1OC", "pIC50", "<", 4.40],
  ["COc1ccc(C=C2Oc3c(ccc(O)c3O)C2=O)cc1OC", "pIC50", "=", 4.96],
  ["COc1ccc2c(=O)cc(-c3ccc(O)c(O)c3)oc2c1O", "pIC50", "=", 5.11]
]}

----------
pIC50: −log10 of the molar value.
Let's look at some pIC50 data for Telomerase reverse transcriptase (Homo sapiens) that I collected from the literature.
Label label 0 if pIC50 falls below 6; label label 1 in every other case.

{"columns": ["sample smiles", "class label"],
 "data": [
  ["Nc1cccc(Nc2c3ccc(NC(=O)CCN4CCCC4)cc3nc3cc(NC(=O)CCN4CCCC4)ccc23)c1", "label 1"],
  ["Cc1nc(N2CCc3ccccc3C2)nc2c1ccc(=O)n2-c1ccc(C(=O)N(C)C)cc1", "label 0"],
  ["O=C(CCN1CCCC1)Nc1ccc2c(Nc3ccc(F)cc3)c3ccc(NC(=O)CCN4CCCC4)cc3nc2c1", "label 1"],
  ["O=c1cc(-c2ccc(O)c(O)c2)oc2c(O)c(O)c(Cl)cc12", "label 1"],
  ["Cc1nc(N2CCN(c3ccccn3)CC2)nc2c1ccc(=O)n2-c1ccc(C(=O)NCc2ccco2)cc1", "label 0"],
  ["O=C(CCN1CCCCC1)Nc1ccc2c(=O)c3ccc(NC(=O)CCN4CCCCC4)cc3[nH]c2c1", "label 0"],
  ["O=C(CCN1CCC(O)CC1)Nc1ccc2c(O)c3ccc(NC(=O)CCN4CCC(O)CC4)cc3nc2c1", "label 0"],
  ["CC(=O)Nc1cccc(Nc2c3ccc(NC(=O)CCN4CCCC4)cc3nc3cc(NC(=O)CCN4CCCC4)ccc23)c1", "label 1"],
  ["O=c1c(F)c(-c2ccc(O)c(O)c2)oc2c(O)c(O)ccc12", "label 1"]
]}

----------
Let's look at some pIC50 data for Telomerase reverse transcriptase (Homo sapiens, UniProt O14746) that I collected from the literature.
pIC50: −log10 of the molar value.

{"columns": ["molecule", "op", "pIC50"],
 "data": [
  ["O=C(CCN1CCCC1)Nc1ccc2nc3ccc(NC(=O)CCN4CCCC4)cc3c(O)c2c1", "=", 5.55],
  ["O=C(CCN1CCCC1)Nc1ccc2c(NC3CC3)c3ccc(NC(=O)CCN4CCCC4)cc3nc2c1", "=", 7.30],
  ["O=C1C(=Cc2ccc3c(c2)OCO3)Oc2c1ccc(O)c2O", "=", 4.89],
  ["COc1ccc(CNC(=O)c2ccc(-n3c(=O)ccc4c(C)nc(N5CCc6ccccc6C5)nc43)cc2)cc1OC", "=", 5.70],
  ["COc1ccc(CNC(=O)c2ccc(-n3c(=O)ccc4c(C)nc(N5CCN(c6ccccn6)CC5)nc43)cc2)cc1OC", "=", 5.77],
  ["CSc1cccc(Nc2c3ccc(NC(=O)CCN4CCCC4)cc3nc3cc(NC(=O)CCN4CCCC4)ccc23)c1", "=", 7.00],
  ["Nc1nc(=O)c2c(ncn2Cc2ccc(-c3ccccc3)cc2)n1Cc1ccc2ccccc2c1", "=", 5.70],
  ["O=c1cc(-c2cccc(Cl)c2)oc2c(O)c(O)ccc12", "=", 4.52],
  ["COc1ccc2c(=O)cc(-c3ccc4[nH]nnc4c3)oc2c1OC", "<", 4.40],
  ["CN(C)CCC(=O)Nc1ccc2nc3ccc(NC(=O)CCN(C)C)cc3c(O)c2c1", "=", 5.72],
  ["O=c1cc(-c2ccc(O)c(O)c2)oc2c(O)c(O)ccc12", "=", 6.52],
  ["COc1ccc(-c2cc(=O)c3ccc(OC)c(OC)c3o2)cc1OC", "<", 4.40],
  ["Nc1nc(=O)c2c(ncn2Cc2ccc3ccccc3c2)n1Cc1ccc2ccccc2c1", "=", 5.40],
  ["O=c1cc(-c2ccccc2O)oc2c(O)c(O)ccc12", "=", 4.60],
  ["Nc1ccc(-c2cc(=O)c3ccc(O)c(O)c3o2)cc1N", "=", 5.44],
  ["CC1(C)CC2CC(C)(CN2CCC(=O)Nc2ccc3c(=O)c4ccc(NC(=O)CCN5CC6(C)CC5CC(C)(C)C6)cc4[nH]c3c2)C1", "=", 5.75],
  ["Nc1nc(=O)c2c(ncn2Cc2ccc(Cl)c(Cl)c2)n1Cc1ccc(Cl)c(Cl)c1", "=", 5.40],
  ["O=C1c2ccc(O)c(O)c2OC1Cc1ccc(O)c(O)c1 (stereo not drawn)", "=", 5.15],
  ["Nc1ccc(Nc2c3ccc(NC(=O)CCN4CCCC4)cc3nc3ccc(NC(=O)CCN4CCCC4)cc23)cc1", "=", 7.10],
  ["CN(C)CCCNc1c2ccc(NC(=O)CCN3CCCC3)cc2nc2cc(NC(=O)CCN3CCCC3)ccc12", "=", 7.22],
  ["CC1CCCCN1CCC(=O)Nc1ccc2c(=O)c3ccc(NC(=O)CCN4CCCCC4C)cc3[nH]c2c1 (stereo not drawn)", "=", 5.48],
  ["Nc1nc(=O)c2c(ncn2Cc2ccc3ccccc3c2)n1Cc1ccc(-c2ccccc2)cc1", "=", 5.70],
  ["Nc1nc2c(c(=O)[nH]1)[n+](Cc1ccc(Cl)c(Cl)c1)cn2Cc1ccc(Cl)c(Cl)c1", "=", 5.00],
  ["O=C(CCN1CCCC1)Nc1ccc2c(NC3CCCCC3)c3ccc(NC(=O)CCN4CCCC4)cc3nc2c1", "=", 7.05],
  ["Cc1nc(N2CCN(c3ncccn3)CC2)nc2c1ccc(=O)n2-c1ccc(C(=O)NCc2ccco2)cc1", "=", 4.78],
  ["O=C(CCN1CCCC1)Nc1ccc2c(NC3CCCCCC3)c3ccc(NC(=O)CCN4CCCC4)cc3nc2c1", "=", 6.68],
  ["COC(=O)c1cccc(Cn2c(N)nc(=O)c3c2ncn3Cc2ccc3ccccc3c2)c1", "=", 4.68],
  ["CCOC(=O)c1ccc(Nc2nc(C)c3ccc(=O)n(-c4ccc(C(=O)OCC)cc4)c3n2)cc1", "=", 5.34],
  ["O=c1cc(-c2ccc(Cl)c(Cl)c2)oc2c(O)c(O)ccc12", "=", 4.84],
  ["N#Cc1c(-c2ccc(O)c(O)c2)oc2c(O)c(O)ccc2c1=O", "=", 6.89],
  ["Cc1nc(NCC(C)C)nc2c1ccc(=O)n2-c1ccc(C(=O)Nc2ccccc2)cc1", "=", 4.72],
  ["COC(=O)c1ccc(Cn2c(N)nc3ncn(Cc4ccc(C(=O)OC)cc4)c3c2=O)cc1", "=", 4.91],
  ["Cc1nc(N2CCc3ccccc3C2)nc2c1ccc(=O)n2-c1ccc(C(=O)Nc2cccc(C#N)c2)cc1", "=", 5.80]
]}

----------
Let's look at some IC50 data for Telomerase reverse transcriptase (Homo sapiens) that I collected from the literature.
Labelling field: enter yes (1) if recorded IC50 is less than 9 µM. Enter no (0) if it equals or exceeds that cut-off.

{"columns": ["sample smiles", "class label"],
 "data": [
  ["CSc1ccccc1Nc1c2ccc(NC(=O)CCN3CCCC3)cc2nc2cc(NC(=O)CCN3CCCC3)ccc12", "yes (1)"],
  ["CC1CCN(CCC(=O)Nc2ccc3c(=O)c4ccc(NC(=O)CCN5CCC(C)CC5)cc4[nH]c3c2)CC1", "yes (1)"],
  ["CC(=O)Oc1ccc(-c2cc(=O)c3ccc(OC(C)=O)c(OC(C)=O)c3o2)cc1OC(C)=O", "no (0)"],
  ["CC(=O)c1ccc(Nc2c3ccc(NC(=O)CCN4CCCC4)cc3nc3cc(NC(=O)CCN4CCCC4)ccc23)cc1", "yes (1)"],
  ["Cc1nc(N2CCN(c3ccc(F)cc3)CC2)nc2c1ccc(=O)n2-c1ccc(C(=O)NCc2ccco2)cc1", "no (0)"],
  ["CCN1CCN(CCC(=O)Nc2ccc3c(=O)c4ccc(NC(=O)CCN5CCN(CC)CC5)cc4[nH]c3c2)CC1", "yes (1)"],
  ["Cc1nc(N2CCN(c3ncccn3)CC2)nc2c1ccc(=O)n2-c1ccc(C(=O)NCc2cccnc2)cc1", "no (0)"]
]}
